These measurements were taken from the kinase profiling compilation of Christmann-Franck et al. (2016).

// reported residual activity per item
# tgt: TTK (human) (UniProt P33981)
# Sequence (P33981 whole entry, looked up): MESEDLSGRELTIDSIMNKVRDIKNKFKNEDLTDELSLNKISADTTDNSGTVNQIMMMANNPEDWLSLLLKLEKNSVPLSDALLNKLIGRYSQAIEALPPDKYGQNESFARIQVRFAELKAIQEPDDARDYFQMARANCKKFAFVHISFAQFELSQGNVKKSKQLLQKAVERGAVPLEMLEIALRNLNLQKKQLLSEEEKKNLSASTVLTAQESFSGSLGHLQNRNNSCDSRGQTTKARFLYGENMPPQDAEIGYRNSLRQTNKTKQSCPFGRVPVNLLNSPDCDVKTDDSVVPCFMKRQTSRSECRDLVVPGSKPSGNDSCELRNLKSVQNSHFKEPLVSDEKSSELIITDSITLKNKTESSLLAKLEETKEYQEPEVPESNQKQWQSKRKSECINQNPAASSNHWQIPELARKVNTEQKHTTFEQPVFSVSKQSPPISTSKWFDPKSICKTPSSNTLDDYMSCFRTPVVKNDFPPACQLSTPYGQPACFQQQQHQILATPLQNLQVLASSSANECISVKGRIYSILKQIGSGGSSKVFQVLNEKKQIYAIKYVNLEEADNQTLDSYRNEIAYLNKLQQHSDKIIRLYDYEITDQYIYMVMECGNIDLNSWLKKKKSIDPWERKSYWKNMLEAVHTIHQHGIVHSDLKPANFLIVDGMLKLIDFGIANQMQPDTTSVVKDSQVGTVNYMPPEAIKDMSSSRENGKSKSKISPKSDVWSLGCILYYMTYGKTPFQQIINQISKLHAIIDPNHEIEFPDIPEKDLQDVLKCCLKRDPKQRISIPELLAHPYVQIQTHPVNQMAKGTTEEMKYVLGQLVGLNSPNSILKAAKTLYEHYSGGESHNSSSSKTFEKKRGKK
# test protocol: radiometric filter-binding kinase assay
# cond: compound 1.0 µM
observed property: residual activity (%)

compound	quantitative readout
Cc1cccc(-c2nn(C(=S)Nc3ccccc3)cc2-c2ccnc3ccccc23)n1	98
O=C(NCCCNc1nc(Nc2cccc(CN3CCOCC3)c2)ncc1C1CC1)C1CCC1	74
Cc1ccc(-c2ccc3c(ccc4sc5c(c43)NC[C@@H](C)NC5=O)n2)cn1	101
CCn1c(-c2nonc2N)nc2cncc(CNC3CCNCC3)c21	84
CCCCCc1ccc(/C=C/[C@H](O)[C@@H](CO)NC)cc1	91
O=C(Nc1nc2cc(C(F)(F)F)cc(NC3CC3)n2n1)c1cccnc1	96
N#Cc1c(C2CCNCC2)cc(-c2c(O)cccc2OCC2CC2)nc1N	89
NC1(c2ccc(-c3nc4ccn5c(=O)[nH]nc5c4cc3-c3ccccc3)cc2)CCC1	105
O=C(N[C@@H](COc1ccc2[nH]c(=O)[nH]c2c1)c1ccccc1)c1cccn(Cc2ccc(F)c(F)c2)c1=O	100
CC1=C(CO)C(=O)O[C@@H]([C@@H](C)[C@H]2CC[C@H]3[C@@H]4C[C@H]5O[C@]56[C@@H](O)C=CC(=O)[C@]6(C)C4CC[C@]23C)C1 (some centres undefined)	112
NC(=O)c1cc2c(-c3cccc(-c4ccccc4)c3)cnc(N)c2s1	55
C=CC(=O)N1CCC[C@@H](n2nc(-c3ccc(Oc4ccccc4)cc3)c3c(N)ncnc32)C1	101
COc1cc(O)c2c(c1)[C@H]1OC1C[C@H](O)[C@H](O)C(=O)/C=C\C[C@H](C)OC2=O (some centres undefined)	101
CN1C(=O)[C@@H](Cc2c[nH]c3ccccc23)NC1=S	98
c1ccc2c(-c3cnn4cc(-c5ccc(N6CCNCC6)cc5)cnc34)ccnc2c1	101
Nc1cccc2c1CN(C1CCC(=O)NC1=O)C2=O (centres undefined)	104
CCNc1nc(Nc2cc(F)c(C(=O)N3CCOCC3)cc2OC)ncc1C(F)(F)F	52
CNc1nc(-c2ccc3c(N)n[nH]c3c2)cc(N2C[C@@H](C(=O)NC3CCCCC3)CC[C@H]2C)n1	84
COc1cc(O)c2c(c1)/C=C/C[C@H](O)[C@H](O)C(=O)/C=C\C[C@H](C)OC2=O	91
